Reference source: patent US20250163127A1

Substrate: ICOS (Homo sapiens (Human)) (UniProt Q9Y6W8)
Sequence (Q9Y6W8 21-199 limits assumed): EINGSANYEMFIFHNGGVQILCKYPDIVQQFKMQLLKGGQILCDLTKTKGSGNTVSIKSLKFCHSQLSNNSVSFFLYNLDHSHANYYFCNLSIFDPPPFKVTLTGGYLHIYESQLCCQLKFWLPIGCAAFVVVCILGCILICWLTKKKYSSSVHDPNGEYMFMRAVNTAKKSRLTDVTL
test: flow cytometry, transfected cells
# reported MFI ratio to WT (ΔWT); entries follow
Provide only the numeric value, understood in fold.

Worked examples, 4 binders total:
Q: What MFI ratio to WT (ΔWT) value was documented for this binder, ICOSL-Fc N52R/N57Y/Q100S (Fc fusion) DTQEKEVRAMVGSDVELSCACPEGSRFDLNDVYVYWQTSESKTVVTYHIPQRSSLEYVDSRYRNRALMSPAGMLRGDFSLRLFNVTPQDEQKFHCLVLSSSLGFQEVLSVEVTLHVAANFSVPVVSAPHSPSQDELTFTCTSINGYPRPNVYWINKTDNSLLDQALQNDTVFLNMRGLYDVVSVLRIARTPSVNIGCCIENVLLQQNLTVGSQTGNDIGERDKITENPVSTGEKNAAT ?
Ans: 1.08

Q: Cool, now ICOSL-Fc N52A/N57F/Q100S (Fc fusion) DTQEKEVRAMVGSDVELSCACPEGSRFDLNDVYVYWQTSESKTVVTYHIPQASSLEFVDSRYRNRALMSPAGMLRGDFSLRLFNVTPQDEQKFHCLVLSSSLGFQEVLSVEVTLHVAANFSVPVVSAPHSPSQDELTFTCTSINGYPRPNVYWINKTDNSLLDQALQNDTVFLNMRGLYDVVSVLRIARTPSVNIGCCIENVLLQQNLTVGSQTGNDIGERDKITENPVSTGEKNAAT
Ans: 1.14

Q: Item: ICOSL-Fc N52S/N57M/Q100S (Fc fusion) DTQEKEVRAMVGSDVELSCACPEGSRFDLNDVYVYWQTSESKTVVTYHIPQSSSLEMVDSRYRNRALMSPAGMLRGDFSLRLFNVTPQDEQKFHCLVLSSSLGFQEVLSVEVTLHVAANFSVPVVSAPHSPSQDELTFTCTSINGYPRPNVYWINKTDNSLLDQALQNDTVFLNMRGLYDVVSVLRIARTPSVNIGCCIENVLLQQNLTVGSQTGNDIGERDKITENPVSTGEKNAAT
Ans: 1.47

Q: Then ICOSL-Fc N52K/N57Y/Q100R (Fc fusion) DTQEKEVRAMVGSDVELSCACPEGSRFDLNDVYVYWQTSESKTVVTYHIPQKSSLEYVDSRYRNRALMSPAGMLRGDFSLRLFNVTPQDEQKFHCLVLSRSLGFQEVLSVEVTLHVAANFSVPVVSAPHSPSQDELTFTCTSINGYPRPNVYWINKTDNSLLDQALQNDTVFLNMRGLYDVVSVLRIARTPSVNIGCCIENVLLQQNLTVGSQTGNDIGERDKITENPVSTGEKNAAT ?
Ans: 0.94

We now examine a further binder.
Q: Would you kindly share the measured MFI ratio to WT (ΔWT) for ICOSL-Fc N52R/N57L/Q100S (Fc fusion) DTQEKEVRAMVGSDVELSCACPEGSRFDLNDVYVYWQTSESKTVVTYHIPQRSSLELVDSRYRNRALMSPAGMLRGDFSLRLFNVTPQDEQKFHCLVLSSSLGFQEVLSVEVTLHVAANFSVPVVSAPHSPSQDELTFTCTSINGYPRPNVYWINKTDNSLLDQALQNDTVFLNMRGLYDVVSVLRIARTPSVNIGCCIENVLLQQNLTVGSQTGNDIGERDKITENPVSTGEKNAAT ?
Ans: 1.09
